- System: K4 kissing-loop RNA reporter;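 further: bound reporter read as fluorescence of individual clusters on recovered sequencing chips by microscopy, with normalized cluster intensities fitted with a binding model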
- Method description: apparent KD of K4 kissing-loop reporter; higher = weaker reporter binding
- Condition label: Eterna round: R107; input ligand: theophylline 20 uM
Below, each of the sequences is paired with its reported apparent KD of K4 kissing-loop reporter value.
Reply numerically in nM, unit not repeated.

Before answering, review these 4 worked examples.
GET /values?readout=apparent KD of K4 kissing-loop reporter&item= UGGAGUUGACGAAAAGUCAACUCCUGAGAUCGAGGACCGGUACGGCCGCCACUCGAGCUAACUGCGAGUGAUGUUCGAAAAUAAA [#OpenEnded 1 - Direct theophylline transfer] 393

GET /values?readout=apparent KD of K4 kissing-loop reporter&item= CAAACGUGCGGUAGGUUCAAGCGCUGGGAAGGAGCGCAGAUGACUGCAGGUAGGUCGCCCAGUGAUGUUGGGCUUUCCACCUACG [Dilausma] 138

GET /values?readout=apparent KD of K4 kissing-loop reporter&item= AAGCAGUCACUCGAAACCAUCGAAGAUGGGCGAGGACCGGUACGGCCGCCACUCGGAGUGAUGUUCCGAAGACUGCAAAAUAAAA 443

GET /values?readout=apparent KD of K4 kissing-loop reporter&item= AUUAAUAUCACGGCCGCCACUGAAUAUUGUUUUUAUAUUUAGAAAUCUUGCCAGUGAUGUUGGAUCAGGACCGGGUGAGUUUAUA [JR_SSTryptoB_Sub006] 424

Others:
GET /values?readout=apparent KD of K4 kissing-loop reporter&item= AUCGUUGUCUGAGGAUAUCGGUUAUCUGUAGUGAUGUUACAGUAUAUUGAUAUUAAAGUUUCUAUUCGAGAAGGCAGACUACGUA [JR_Nu_ExcFMNB_Sub022] 58.9

GET /values?readout=apparent KD of K4 kissing-loop reporter&item= UGAUACCAGACGGCCGCCACUCCCGCAGGUCAAAGACCUGCGAAGAAGGUUCUUCAGUGAUGUUGGAGGACCGGGUCUGGUAUCU [FiskerMod 22 - Jieux - Exclusion - Tryptophan B] 213
